Source: the domain aggregation screens of Martell et al. (2025)

Field: soluble fraction (log2). Provide a value for each of the sequences that follow.
assay: soluble fraction after stress (log2 fold change); higher = more stays soluble; pooled small domains, quantitative proteomics; settings: stress: pH 4
Give bare numbers.

Use the examples below as a reference point.
HMEEITLIAEDEGLRLDTWLTDKLKDYSRSYIQKLMEDELVLVNGKARKANYRIKTGDEIHVSIPEPE -0.507
HMRTYEHALTEEEKELILIVSNLSEYKSLPPSQIVPKLADLGIYIASESSFYRVLRAHNQLHHRGR -1.27
HMDRSAQVLFLEHARSRLPQRIQWAEELAELLSIGIDSAYRRIRGETALTFNEAVSVSRKYDISLDYLFK -1.4
HMDADRILHKTLKPRELEIYQLIKAYLEEHSQIANAKVQEISGLSEATTRRYLNIFVEFGLLKTS -0.164
HMQSHGSRIWTDITGNFTREASFIELAEGKVTLQLTDGRRTIISFEILSKKDQEYVLDIGDS -1.95

I'm hoping you can list soluble fraction (log2) for every sequence here, please.
1. HMVFTEEEMLEKIKEYLSTNSYINRRAMETLFNLRQSTALKWLGHFTEIGVLRKEGERNYPVYFLNN
2. HMVQQTEEDVIRDMYVEGKIFTIGEEVTDTYTGVTGKIIRRGTNYVTFMSEDGETYKKWLYEIELA

Reply:
1. -0.159
2. -1.82

Please report soluble fraction (log2) for every entry that follows.
1. HMPPPVDLDKKGYKLRGIVLEDGRSAAFVFVPAEKRVVVLRENASGPVRLLETGMRRIRLQTPEGAGYLEL
2. HMPKIPRLTLTETAGIMGVSQRALALAIQQGMYSWAQALPGRNKKRPIYFINAITFAKAQGIDLEEYK
3. HMAEQLGNSRTANMVMLGAMIERTGVISIDSAMEALKATFGPKKEHLLPINRQAMEAGAAAARAV
4. HMNNESEGAIMLRQYSSLSAYLTKYNIDVNSKKAQQYASSLKLAQEKGSAEGQKYLSSISSELDD
5. HMTVAQEIEARRATIRSSDPAEMARFIRWLIMEGHTEPAADELKKYAENFPEASATTKQLQALLAAR
6. HMTSNKTVPYSELKGLISTGKIEYVGIGNTQIRAVSKSGAGIVTYTARRVIPDDTLIPELEKNGIAYGGI
7. HMPLTAASLQTYLRGVDYPASKQDLIAHARKSDAPEDAITVLEQYSEQTYRSAADVSAEFGS

Reply:
[-0.259, -0.529, -0.517, 0.00542, 0.147, 0.112, -0.156]

* * *

assay: soluble fraction after stress (log2 fold change); higher = more stays soluble; pooled small domains, quantitative proteomics; conditions: stress: pH 4
# cutoff -0.07 applies to soluble fraction (log2); >= gives Fulfilled, < gives Not fulfilled

The examples below pair each entry with its known result.
HMLETIDIFKVTGGEPFLSKDFLEILDLAIEKDLAKNITLMITTNASKFVKKILDKFIHFKRVEFTVS Not fulfilled
HMERAFRILELFDLKQDELPITEIAERTGLPISTAHRLLSTLETLGYIAQNPDNGRYRLGLQTFVLGSR Not fulfilled
HMKIVFGHVKWFDIDKGFGFLVLEDEGGDVLLHANVLKNFGRTSVSEDTKIEFEFLETDKGRQVSTIYNIL Not fulfilled

Ask: Record `HMIDFDHADIERLWNSIIHYVPERQKLDFAIDFIKSLEDIGVEHDVLRGSAELDPKLEEAVNTVFE` ; criterion: soluble fraction (log2) no lower than -0.07. Met?
Reply: Not fulfilled

Ask: Lookup `HMANEGWDIYKLDIRNHKQPNGEYYSEKEIQSTINNTFGKGSFNVDWKKYEKDKEYREKTNYYYFQAKYFV`
Reply: Not fulfilled

* * *

test: soluble fraction after stress (log2 fold change); higher = more stays soluble; pooled small domains, quantitative proteomics; conditions: stress: pH 4
Please use the following soluble fraction (log2) ranges when assigning a class: bottom end: < -0.6; midrange: ≥ -0.6 and < -0.06; top end: ≥ -0.06

Consider the worked cases shown below.
HMDTIGSKVLAFLAGNLLDPTPFNYRFGYLYLNRTSKVIVEETDTYIDSGMRMTQEAVAEIMQKFAQ bottom end
HMNIGVEQIEQMERGALITLWQELIDKPLPRHMSIVFLRQVLAFEVQSKQNGGLPRGFITLLNKQAD bottom end
HMVDSTDLIPLLIKVSREKQGNKKLNWGEWLKIPENIYLKQINENIARKVFEDTNDLIDEAVNYINRKRRN midrange
HMGALSLDMLFDRFDALQEQSMGDKTEGGQELRGMIRTFIEQEKLDIRVTRTTTNAALLEMIEKEMQG top end

Ask: Hello team, could you let me know which band the following sequence falls into: `HMQEESISWKEFLELDIIGDKKKRLKVYDLFHLGYGNAKTLFKRLNMVGISREMIEKELENEGY`
Reply: top end

Ask: Thanks! And `HMSKQVDVVIYILENTKAADNTYIGTYRKTADGAGVSLDTATKVMRKLQENNFIKKVQNGVYQISPLIMM` ?
Reply: midrange

Ask: Thanks! And `HMISENFVEAKILLTEDNRPKSLEILKDIIRQHDKVYSPLSLFLILDEDLEENKEIILEYFDLVLS` ?
Reply: bottom end

Ask: Please do the same for `HMIKIEDILNVESVELSDSEYKKFLNGILINVKNLENGWAKVYSGNEFKGFGIVDKNLLKRKIVID` as well.
Reply: midrange

Ask: Queued: `HMRSVLSDEIYLLIRKMIFNYEILPGAKVNIDALAKKLDVSQTPVREALSRLESDGLIVKEPLKGFRATD`
Reply: midrange

* * *

assay: soluble fraction after stress (log2 fold change); higher = more stays soluble; pooled small domains, quantitative proteomics; settings: stress: pH 4
Would you kindly list soluble fraction (log2) for each of these sequences?
Answers are plain numbers.

Please review the following examples before continuing.
HMQYPSSLDSRAKQSLYDNLERNEILALALDNVIQSNKLDGWRDGGIKERKLRLAINNLLKNDEHTDNIME -0.284
HMGGKTAVVTGSLVNVRKGPGTGNALVGQVARGDELPVLGQDGDWYQIKLANGSNGWVAGWLVSLKDAVP -0.112
HMQEKIREVANRIRELRESLEVSPEEMADHLKVTIGTYIEYERGEADIPASVLFGIAHRLNVDMAVLL -1.36
HMGLPPIATGVNDNMSFSQAFAAARAEVGAGGAFEWHGRVYGTYYKNEWDGMSAQERHDFEIAAIRGS -0.0114
HMTINPFSTLAVRELEILHYLLNGHRTKEIATNLGLKMNTVSTIKSNIFEKVKADSFTHLLQLAHVHQIS -0.0952

Value sought for every listed sequence: soluble fraction (log2).
1. HMAKSPYDVLGLKEDAPFDEVKKRYRELVKKYHPDILMGRGESEEMIEKSTRKLQEINEAYETIKQRA
2. HMDPERVVGQTGIVHLRIPARQHNTGKVMIEVQGSLREFDAVSEAEEIPTGTPILIVGRTEEGVFIAQPF

Reply:
[-0.0402, -0.823]

Take each entry in turn and give its soluble fraction (log2).
1. HMKAAQDQDQAATLLQKATGVNQDQAKLAATVLFKEQSVTPIRQAIASGDYYQAYQDAKSLQQQ
2. HMAPQAETLLRQVMALPSKDRAVLYLHYYEGFSTREVGDMLHISQSAVTTRLLRARKKLKEIL
3. HMDGISANAVKALIESLIAGEDKRKPLSDQAMSDRLALQGIVLARRTVAKYREELNFPPAHQRKQK
4. HMEEFDLNAYITKINSAATLNALKQAYAEANSAALSVKDKDAQRKIIVEKDKRKAELIQETAG
5. HMSVDDVALRLEFGPSDAEALAFVHRHGAILSETTDRDTGVVSVHVRLSEADAGRFNQRYGV
6. HMTSMNNTEELIDMANKIIDNNPNMVLKYKEGRNVLDFFIGQVMKETKGRANPSATSKIFKDLLEK
7. HMHVYSYPAAVKIKNAVGREMMVTLLGRSGTHVQFARQDGEEFVYPISSLDLAAQTLISKYPNDGIKN

Reply:
1. 0.22
2. -0.754
3. 0.22
4. 0.313
5. -0.233
6. 0.171
7. 0.0689

Please give soluble fraction (log2) for each item listed below.
1. HMKLINEDLNNEIVFEENKVNLLVIENKKKFVQFIQEIIKQINGDEGKFSLFDINTELKIHDKIDII
2. HMDVMNEIQQKAFDIYIQSASLKNDFTPISERALAKKLHDMGLKSSMSAIGRWKKKFGWVQSLQNKVTLA
3. HMKIEETLGKTAQVYIPIPQYLSGIGKVTLSVRGSLRELDAMTEEEKIPSNTIVRIVKVQDQVLFVKRA

Reply:
1: -0.0802; 2: -0.183; 3: -0.0641

* * *

assay: soluble fraction after stress (log2 fold change); higher = more stays soluble; pooled small domains, quantitative proteomics; details: stress: pH 4
soluble fraction (log2) of -0.2 or higher: true (1). Under -0.2: false (0).

Field: example entries. Status: answers known.
HMDGIDALEPLMRRVFEALPQRRSMTIERAAVAAGLDEESVKIALVRLQLEGYVANDERGWHRSKSPH true (1)
HMLDVFSAEQVADVLSVSKRNLETWANNGKLIPDFIHGEVALYSKKQLEQFEQFQRFFNSSWDAERLIQP false (0)
HMVSDAELTSQATTAITAYPGTSVEVKEGQAHLSGTFATEADKQAAIDALKKIQDVKDVHDMATV true (1)
HMDQFMLQSAWLRAVQHVMKHTDDVGTQFAEEARRMHYGEADERPIRGQATSDEARALHDEGIEVMALPI true (1)
HMRRARVAGKGHFTGEDAMAVYRELEALFGETETLYLPGHRPFEAVLSKLALIGVPEKNTVPYTFAFVET false (0)

Ask: Can `HMKDHKSKWMAKTELDSIAKNLSKKHAISLDYEEDGTRFYAGGQSPLGIGRLFTVFVAPRNGHWSDQLR` be said to have soluble fraction (log2) at or above -0.2?
Reply: true (1)

Ask: Same for `HMSLTAQVFTDRGKVLLSENKFTEAIDQFTKALAMDKVYIEALNRRIEAYQHLGLTELAAKDEALLGTL`
Reply: false (0)

Ask: # iterate: `HMSDDLIILGYSMLNNALKAFHIDPDSIKKKHWDKLAQDYHLKNKNQILTDIALGKRVNIMVAHQLTTIMD`
Reply: false (0)

Ask: Consider next the sequence `HMTGGIWVQIQGAVERPGVYSLPRDSRLKDLLEAAGGFGRDADTEKVNQAARLEDGAMYRVPRQGEG` in the same way.
Reply: true (1)

Ask: Please do the same for `HMVMTTVPEVLGMDIRTAASMLTGKNLKYDYDLVESDKPKDEVIEQDQAKGTEVPEGTVVKLKVSKGPA` as well.
Reply: true (1)

Ask: What do you get for `HMTSHYTVLGVKETDTIEMIRTHYRKLILQFHPDKNQHLTEEERKKLEVKVLQIREAYEKIKKEK` ?
Reply: false (0)

Ask: What do you have for `HMGMAQELMESRLTAVFTSGKDQLAVLQRKDGSTLKLGADSKPWRIESFDGRKAVFVSADQQRVERLL` ?
Reply: false (0)

Ask: Would you kindly repeat that for `HMQMLQDPFLNALRKEHVPVSIYLVNGIKLQGQVESFDQYVVLLRNTSVTQMVYKHAISTIVPARAVSL` ?
Reply: false (0)

Ask: Subsequent entry: `HMAVPLVRGTVTSSVGTVLLLSVGERDFFLSEGEEKDGVLLQSLSEKSAVVVVSGRAYTLSL`
Reply: false (0)
